- target-or-system: USP2^CD (purified catalytic domain of USP2) (Homo sapiens, UniProt O75604)
- Construct: The purified catalytic domain of USP2 (USP2^CD, in-house purified); His; made in house; host or cells: E. coli BL21 Gold
- Sequence (O75604 267-599 limits assumed): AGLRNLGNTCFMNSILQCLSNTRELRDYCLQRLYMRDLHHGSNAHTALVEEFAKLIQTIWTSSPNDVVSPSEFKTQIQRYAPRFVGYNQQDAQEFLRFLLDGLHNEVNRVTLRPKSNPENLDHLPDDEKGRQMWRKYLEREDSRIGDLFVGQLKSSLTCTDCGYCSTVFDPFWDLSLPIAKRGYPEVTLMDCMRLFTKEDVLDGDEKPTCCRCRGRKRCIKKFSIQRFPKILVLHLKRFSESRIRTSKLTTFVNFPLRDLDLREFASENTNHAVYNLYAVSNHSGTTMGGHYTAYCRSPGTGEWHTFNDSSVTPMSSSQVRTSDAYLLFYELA
- assay-info: Inhibition of purified USP2^CD enzymatic activity (Ub-AMC or Ub-Rho substrate)
- Assay type: biochemical
- measurement-setup: 0.01 μM compound; Table 1c
As shown below, each of these molecules has a reported inhibition at 0.01 µM value.
The response must be a number in % with no trailing unit.

Completed entries (count: 3):
# mol-smiles, inhibition at 0.01 µM / %
data = [
    ("COc1ccc(S(=O)(=O)Cc2nc3c(nc2CS(=O)(=O)c2ccc(OC)c(OC)c2)C(=O)c2ccccc2C3=O)cc1OC", -19),
    ("CCCCCS(=O)(=O)Cc1nc2c(nc1CS(=O)(=O)CCCCC)C(=O)c1ccccc1C2=O", -11),
    ("CS(=O)(=O)Cc1nc2c(nc1CS(C)(=O)=O)C(=O)c1ccccc1C2=O", 17),
]

Recorded inhibition at 0.01 µM for O=C1c2ccccc2C(=O)c2nc(CS(=O)(=O)c3cccc(F)c3)c(CS(=O)(=O)c3cccc(F)c3)nc21 , please?
9
